- experimental-details: MRT (0 to infinity) in ICR mouse at 10 mg/kg, po measured for 24 hrs by LC-MS/MS analysis
- Type: ADME, organism-based
- condition-context: in vivo

# compound, MRT inf, h
records = [
    ("Cc1nc2cccc(N)c2c(=O)n1C1CCC(=O)NC1=O (configuration not stated) [AVADOMIDE]", 3.73),
    ("Cc1nc2cccc(NCc3ccc(CN4CCCCCC4)cc3F)c2c(=O)n1C1CCC(=O)NC1=O (configuration not stated)", 5.58),
]

---

- experimental-details: Cmax in ICR mouse at 10 mg/kg, po measured for 24 hrs by LC-MS/MS analysis
- Assay type: ADME, organism-based
- Design: time 24 hrs, dose 10 mg/kg, route po
- condition-context: in vivo
// values below are reported Cmax

# compound, Cmax
rows = [
    ("Cc1nc2cccc(N)c2c(=O)n1C1CCC(=O)NC1=O (configuration not stated) [AVADOMIDE]", "7870 ng/mL"),
    ("Cc1nc2cccc(NCc3ccc(CN4CCCCCC4)cc3F)c2c(=O)n1C1CCC(=O)NC1=O (configuration not stated)", "764 ng/mL"),
]
